molecular target: Muscarinic acetylcholine receptor M2 (Homo sapiens, UniProt P08172); type: cell membranes, CHO-K1, Membrane; conditions: cho-k1; also: in other assays of this panel Not Active means under 50% inhibition at 10 µM
Sequence (P08172 whole entry): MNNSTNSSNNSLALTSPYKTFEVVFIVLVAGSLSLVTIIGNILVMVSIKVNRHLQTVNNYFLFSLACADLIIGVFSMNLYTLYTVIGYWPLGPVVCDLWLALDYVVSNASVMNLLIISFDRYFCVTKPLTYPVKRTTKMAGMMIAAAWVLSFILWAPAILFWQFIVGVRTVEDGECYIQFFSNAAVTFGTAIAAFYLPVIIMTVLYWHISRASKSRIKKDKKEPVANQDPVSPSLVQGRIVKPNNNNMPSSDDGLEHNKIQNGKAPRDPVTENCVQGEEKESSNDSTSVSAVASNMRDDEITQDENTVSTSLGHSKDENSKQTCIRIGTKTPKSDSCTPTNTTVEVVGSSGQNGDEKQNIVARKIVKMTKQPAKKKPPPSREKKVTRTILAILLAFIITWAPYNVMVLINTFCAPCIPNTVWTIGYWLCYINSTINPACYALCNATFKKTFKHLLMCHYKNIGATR
quantity_name: Ki

Below: 4 substances and their reported Ki.
IVERMECTIN; Not Active
OXALIPLATIN; Not Active
GOLD SODIUM THIOMALATE; Not Active
CISPLATIN; Not Active

Next substance, please.
Data request: Write down Ki measured for item CARBOPLATIN
Data returned: Not Active

###

target: Aldo-keto reductase family 1 member B1 (Rattus norvegicus, UniProt P07943); format: tissue-based, Lens of camera-type eye; also: in other assays of this panel Not Active means under 50% inhibition at 10 µM;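 also: inhibition of aldose reductase enzyme activity, measured with DL-glyceraldehyde as the substrate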
quantity_name: IC50

CC(C)n1c(/C=C/C(O)CC(O)CC(=O)O)c(-c2ccc(F)cc2)c2ccccc21 (stereo not drawn) [FLUVASTATIN]; Not Active
C=C1[C@@H]2CCC3[C@@](CC[C@@H]4[C@H](C(=O)O)C[C@@H](O[C@@H]5O[C@H](CO)[C@@H](OS(=O)(=O)[O-])[C@H](OS(=O)(=O)[O-])[C@H]5OC(=O)CC(C)C)C[C@@]34C)(C2)[C@@H]1O.[K+].[K+] (stereo partly drawn) [ATRACTYLOSIDE]; Not Active
CN(C)CCCN1c2ccccc2CCc2ccc(Cl)cc21 [CLOMIPRAMINE]; Not Active
